- System: HL-60(TB) leukemia
- assay-summary: NCI tumour cell line growth inhibition, 48 h; in the data active = GI50 below about 0.43 µM; inactive = the rest
Parameter call: string, one of active, inactive

| compound | assayed-target | assigned-class |
| --- | --- | --- |
| O=C1NCN(c2ccccc2)C12CCN(CCCC(c1ccc(F)cc1)c1ccc(F)cc1)CC2 | HL-60(TB) leukemia | inactive |

Prompt line: Name the outcome recorded for CC(CN(C)C)S(=O)(=O)c1ccc(-c2cnc(N)c(C(=O)Nc3ccccc3)n2)cc1 (centres undefined) in the assay.
Response line: inactive

Prompt line: Name the outcome recorded for Oc1[nH]c(N=C2N=c3ccccc3=N2)c2ccccc12 in the assay.
Response line: inactive

Prompt line: Name the outcome recorded for CC/C=C\C[C@H](O)C/C=C1/C(=O)C=C[C@@H]1C/C=C\CCCC(=O)OC(C)C in the assay.
Response line: inactive

Prompt line: Name the outcome recorded for O=c1cc(-c2ccccc2)oc2ccc(OC/C(=N/O)c3ccc(F)cc3)cc12 in the assay.
Response line: inactive

Prompt line: Name the outcome recorded for COc1ccc(C(C#N)=C2C=CC(=NO)C=C2)cc1 in the assay.
Response line: inactive

Prompt line: Name the outcome recorded for O=C(Nc1ccc2ncnc(Nc3ccc(Oc4cccc(F)c4)c(Cl)c3)c2c1)c1ccc(CN2CCOCC2)cc1 in the assay.
Response line: inactive

Prompt line: Name the outcome recorded for O=C1/C(=C/c2ccc(F)c(F)c2)CN(C(=O)C(Cl)Cl)C/C1=C\c1ccc(F)c(F)c1 in the assay.
Response line: active

Prompt line: Name the outcome recorded for CN(C)c1ccc(C(=N)c2ccc(N(C)C)cc2)cc1 in the assay.
Response line: inactive

====

- System: NCI/ADR-RES ovarian
- assay-summary: NCI tumour cell line growth inhibition, 48 h; in the data active = GI50 below about 0.43 µM; inactive = the rest
Parameter call: string, one of active, inactive

| compound | assigned-class |
| --- | --- |
| Cc1cc(C(=O)Nc2cc(Oc3ccc4nc(NC(=O)C5CC5)cn4n3)ccc2C)n(C)n1 | inactive |
| O=C1OCC(c2ccc(O)cc2)=C1c1cc(O)c(O)c(O)c1 | inactive |
| Nc1ncnc2c1c(-c1ccc(Oc3ccccc3)cc1)nn2C[C@H]1SSC[C@@H]1O | inactive |
| CC/C=C\C[C@H](O)C/C=C1/C(=O)C=C[C@@H]1C/C=C\CCCC(=O)OC(C)C | inactive |
| O=C1Nc2ccccc2/C1=C\c1cccc(/C=C2/C(=O)Nc3ccccc32)n1 | inactive |
| O=C(Nc1ccc2ncnc(Nc3ccc(Oc4cccc(F)c4)c(Cl)c3)c2c1)c1ccc(CN2CCOCC2)cc1 | inactive |
| Cc1ccc(-c2c(C#N)[n+](=O)c3cc(F)c(F)cc3n2[O-])cc1 | inactive |
| C=C(C)[C@@H]1C/C=C(/CO)CC[C@H]2O[C@]2(C)CC/C=C(\C)CC1 | inactive |
| COc1cc(-c2nn(-c3cccc(NC(=O)NCCNS(=O)(=O)c4ccc(Cl)cc4)c3)cc2-c2ccncc2)ccc1Cl | inactive |
| N#Cc1ccc(CSc2ncnc3nc[nH]c23)cc1 | inactive |

Prompt line: Name the outcome recorded for CC(CN(C)C)S(=O)(=O)c1ccc(-c2cnc(N)c(C(=O)Nc3ccccc3)n2)cc1 (centres undefined) in the assay.
Response line: inactive

Prompt line: Name the outcome recorded for CCCCCCCN(CCCCCCC)C(=N)c1ccnc2ccccc12 in the assay.
Response line: inactive

Prompt line: Name the outcome recorded for CC(=Nc1ccccc1)C1=C(O)C(Cc2cccc(F)c2)NC1=O (centres undefined) in the assay.
Response line: active

Prompt line: Name the outcome recorded for C=C(C)[C@@H]1CC[C@]2(COCCCNCCCN)CC[C@]3(C)[C@H](CC[C@@H]4[C@@]5(C)CC[C@H](OCCCN)C(C)(C)[C@@H]5CC[C@]43C)[C@@H]12 in the assay.
Response line: inactive

From: PubChem BioAssay (NCI)
